Assay: Concentration in plasma after sustained subcutaneous administration (osmotic pump)
Type: in vivo
Settings: rat, sc, low dosage sustained subcutaneous administration group, after the end of the behavioral experiments
Method: Therefore, the inventors prepared Parkinson's disease model rats in the same way as in Example 4 and treated the rats by repeated doses of levodopa (twice a day, Monday to Friday) for 7 weeks. The presence or absence of the rotational behavior of each rat was recorded at approximately 1 hour after the administration of levodopa during the repeated dosing period. […]
readout-name: concentration at 2 weeks (ng/mL)
Express the result in ng/mL but write the number alone.

Lookup: I am curious: what concentration at 2 weeks value has been reported for `O=C1c2ccccc2OC=C(Cl)N1CCCCN1CC=C(c2ccccn2)CC1` ?
Found: 5.3
